Origin of the recorded values: the DeepSol protein solubility set

# method-description: soluble on expression in E. coli; label from the status in PepcDB or PDB records
assay-readout: soluble on expression in E. coli

MTYGIVIVSHSPEIASGLKKLIREVAKNISLTAIGGLENGEIGTSFDRVMNAIEENEADNLLTFFDLGSARMNLDLVSEMTDKELTIFNVPLIEGAYTASALLEAGATFEAIKEQLEKMLIEKRSHHHHHH : soluble
MRGDDMHIYELVSRDRTHPVRIYLLHSEYWTEDEFYNLLLEAFQRSSASDWHLQILEVSKYLVTAHGFVEAGGLQEIGFPGELSKTEVRRRINAFLGKDRSD : soluble
MKQFGLAAFDELKDGKYNDVNKTILEKQSVELRDQLMVFQERLVEFAKKHNSELQASPEFRSKFMHMCSSIGIDPLSLFDRDKHLFTVNDFYYEVCLKVIEICRQTKDMNGGVISFQELEKVHFRKLNVGLDDLEKSIDMLKSLECFEIFQIRGKKFLRSVPNELTSDQTKILEICSILGYSSISLLKANLGWEAVRSKSALDEMVANGLLWIDYQGGAEALYWDPSWITRQL : soluble

* * *

# method-description: soluble on expression in E. coli; label from the status in PepcDB or PDB records
assay-readout: soluble on expression in E. coli

MSAQASRQKKSDQEQRAADQALLNAAIEDNAMEQDENFTVIDKLESSGISSGDISKLKEAGYYTYESLAFTTRRELRNVKGISDQKAEKIMKEAMKFVQMGFTTGAEVHVKRSQLVQIRTGSASLDRLLGGGIETGSITEVYGEYRTGKTQLCHSLAVLCQLPIDMGGGEGKCMYIDTNATFRPERIIAIAQRYNMDSAHVLENIAVARAYNSEHLMALIIRAGAMMSESRYAVVIVDCATAHFRNEYTGRGDLAERQMKLSAFLKCLAKLADEYGVAVIITNQVVAQVDGGASMFQADAKKPIGGHIIAHMSTTRLYLRKGKGENRVAKMVQSPNLPEAEATYSITNHGIEDARED : not soluble
MTATQITGVVLAAGRSNRLGTPKQLLPYRDTTVLGATLDVARQAGFDQLILTLGGAASAVRAAMALDGTDVVVVEDVERGCAASLRVALARVHPRATGIVLMLGDQPQVAPATLRRIIDVGPATEIMVCRYADGVGHPFWFSRTVFGELARLHGDKGVWKLVHSGRHPVRELAVDGCVPLDVDTWDDYRRLLESVPS : not soluble
MGSDKIHHHHHHMKHTEMSLTDKKIIITRAQEQTSEARKIFRKNGAEVFDLPSLVIGPPDDWAPLDDALKKISTFDWIIFSSANGVRNVEDRMREIGLSLSKISKTIQIAAVGRKTASLLSDMDAEISFVPPSFVADSLLEYFPQNQKGLKLFIPRVQTGGRSILSDSFRLNGAEVTEVAAYESSCPKDVPQKTIEALKSGEIDIIAFTSGKTVINTVSLFNKYFGGNWFKLIEKIKLVSIGPQTTISCKKLIRKPDKEAEPHDLEGLLNACLELKFN : not soluble

* * *

# method-description: soluble on expression in E. coli; label from the status in PepcDB or PDB records
assay-readout: soluble on expression in E. coli

Some solved entries appear below for comparison.
MTRLPKLAVFDLDYTLWPFWVDTHVDPPFHKSSDGTVRDRRGQNIQLYPEVPEVLGRLQSLGVPVAAASRTSEIQGANQLLELFDLGKYFIQREIYPGSKVTHFERLHHKTGVPFSQMVFFDDENRNIIDVGRLGVTCIHIRDGMSLQTLTQGLETFAKAQAGL : soluble
MLLQLAEDRRRLKGVQSTVKKAEIKVELLPKYAAWAEGVLAAGGAQQDDVLMYVMLWRIDAGDYAGALEIGRHALRHGWVMPLGNRNVQTVLAEEMADAAQSAMLATTGFDVDLLLQTLELTDGLDMPDQSRARLHKAIGAVLSESNPASALNHLNHALQLDPRCGVKKDKQQLERRLRNDSR : not soluble
MHHHHHHSSGVDLGTENLYFQSMGFETLVVTSEDGITKIMFNRPKKKNAINTEMYHEIMRALKAASKDDSIITVLTGNGDYYSSGNDLTNFTDIPPGGVEEKAKNNAVLLREFVGCFIDFPKPLIAVVNGPAVGISVTLLGLFDAVYASDRATFHTPFSHLGQSPEGCSSYTFPKIMSPAKATEMLIFGKKLTAGEACAQGLVTEVFPDSTFQKEVWTRLKAFAKLPPNALRISKEVIRKREREKLHAVNAEECNVLQGRWLSDECTNAVVNFLSRKSKL : soluble
MGSDKIHHHHHHMLQAQLKPANLVVTCNQTHSTMAQTDAPSTPAKPVIHAKQTAESGSSAQLRHLSRYLVRNLGMLNAAFGDLPLSPVQAHALFEIGKQPLTIKELACKLSIDKSNASRAIKHLIDKNLAQSQIHPRDSRCLVVQLTPAGKKLLLKLDTQQNQLFQEILAQLTPAQTSQIEEALMLYNQAVHNAKHQSGCHIRQATAQDDAAIAKVIRDVSAEYGLTADKGYSVADPTLDCLSQIYSQAGANYWIIELDGRILGGAGIAPLANNEGVCELQKMYFMPEIRGKGLATRVALMALDFARETGYQSCYLETTAALNEAVKLYEKLGFVHLSAPLGNTGHDACEMPMLLELNQ : not soluble

Supply soluble on expression in E. coli value. Item: "MSLAKHIVELTDALSNKIAAGEVVERPASVVKELVENAIDAGSTVIDILVEEAGLNKITIIDNGSGIEEEDVATAFLRHATSKIKNEADLFRVHTLGFRGEALPSIASVSHLEMETSTGEAKGTTISLEGGKIIEQKSGHARKGTQIEVSQLFFNTPARLKYLKSLPTELGNITDILNRLALAHPDISFRFSHNGKPLLQTNGNGELRQVIAAIYGVSIAKKSVPVKAESLDFKISGYAVLPEVNRSNRNYISTIINGRFIKNFALVKAIQEGYHTLLPIGRFPIIVLQIEMDPIIVDVNVHPAKLEVRLSKEKELGQLISQMIKETFHKLQLIPDGEISKEGHHHHHH"
soluble
